- System name: Voltage-gated inwardly rectifying potassium channel KCNH2 (Homo sapiens) (UniProt Q12809)
- Sequence (Q12809 whole entry, looked up): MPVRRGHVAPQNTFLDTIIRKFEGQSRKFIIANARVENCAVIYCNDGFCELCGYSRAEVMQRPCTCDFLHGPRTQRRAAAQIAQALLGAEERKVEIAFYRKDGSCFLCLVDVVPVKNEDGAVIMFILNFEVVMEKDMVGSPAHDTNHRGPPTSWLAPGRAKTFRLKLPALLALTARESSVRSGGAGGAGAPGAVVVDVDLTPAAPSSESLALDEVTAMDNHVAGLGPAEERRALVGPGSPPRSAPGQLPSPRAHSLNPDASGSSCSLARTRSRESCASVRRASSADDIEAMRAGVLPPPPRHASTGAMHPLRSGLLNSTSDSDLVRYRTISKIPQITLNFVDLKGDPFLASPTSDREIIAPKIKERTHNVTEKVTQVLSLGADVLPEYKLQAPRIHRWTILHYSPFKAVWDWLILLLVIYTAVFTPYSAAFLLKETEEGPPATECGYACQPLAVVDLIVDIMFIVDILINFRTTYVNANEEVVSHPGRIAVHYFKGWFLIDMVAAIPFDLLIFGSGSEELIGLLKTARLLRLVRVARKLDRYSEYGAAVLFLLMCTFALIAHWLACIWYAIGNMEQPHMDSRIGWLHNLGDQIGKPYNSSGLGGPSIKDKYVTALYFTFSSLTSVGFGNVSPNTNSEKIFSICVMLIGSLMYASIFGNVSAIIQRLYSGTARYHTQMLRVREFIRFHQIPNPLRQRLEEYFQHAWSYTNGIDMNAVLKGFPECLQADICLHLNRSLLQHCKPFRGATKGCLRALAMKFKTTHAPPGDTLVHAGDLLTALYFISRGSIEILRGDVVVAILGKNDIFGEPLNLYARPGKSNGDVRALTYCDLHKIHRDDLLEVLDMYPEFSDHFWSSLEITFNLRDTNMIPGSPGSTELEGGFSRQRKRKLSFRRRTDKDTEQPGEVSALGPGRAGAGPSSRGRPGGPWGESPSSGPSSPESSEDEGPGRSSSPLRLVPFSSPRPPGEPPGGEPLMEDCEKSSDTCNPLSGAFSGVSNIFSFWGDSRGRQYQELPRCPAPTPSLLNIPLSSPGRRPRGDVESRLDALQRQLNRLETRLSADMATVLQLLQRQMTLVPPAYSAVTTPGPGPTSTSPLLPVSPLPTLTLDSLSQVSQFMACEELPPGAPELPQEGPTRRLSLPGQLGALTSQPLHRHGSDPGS
- Assay protocol: qHTS Assay for Small Molecule Inhibitors of the Human hERG Channel Activity (AID 588834);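 note: lower thallium flux fluorescence means stronger hERG block; nearly all actives have a fitted effect of over 50% in size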
- Condition info: U2OS BacMam hERG, FluxOR thallium flux fluorescence; series mostly up to 46.1 µM
Inconclusive results are not listed. Activity calls are given as the source filed them. Calls come from the whole dose curve; as a rule, active = well fitted inhibition curve with a large enough effect; inconclusive = small, poorly fitted or top-dose-only effect; inactive = flat fitted curve, though single readings scatter.
Classes used: T for active, F for inactive

{"Molecule": "CC(O)CCCCn1c(=O)c2c(ncn2C)n(C)c1=O (stereo unspecified)", "Label class": "F"}
{"Molecule": "CC(C)(C)C(=O)OCOC(=O)[C@@H]1N2C(=O)[C@@H](NC(=O)[C@H](N)c3ccccc3)[C@H]2SC1(C)C", "Label class": "F"}
{"Molecule": "CCCCC1(COC(=O)CCC(=O)O)C(=O)N(c2ccccc2)N(c2ccccc2)C1=O", "Label class": "F"}
{"Molecule": "CCN(CC)CCOC(=O)C(c1ccccc1)c1ccccc1", "Label class": "T"}
{"Molecule": "CC(=O)OCC(COC(C)=O)OC(C)=O", "Label class": "F"}
{"Molecule": "CC(C)c1cc2c(cc1S(=O)(=O)O)[C@@]1(C)CCC[C@@](C)(C(=O)O)[C@@H]1CC2", "Label class": "F"}
{"Molecule": "O=c1[nH]c(=O)n([C@H]2C[C@H](O)[C@@H](CO)O2)cc1I", "Label class": "F"}
{"Molecule": "CCCOC(=O)c1ccc(N)cc1", "Label class": "F"}
{"Molecule": "Cc1ccc2c(c1)c1c3n2CCNC3CCC1 (stereo unspecified)", "Label class": "F"}
{"Molecule": "CC(=O)OCC(=O)[C@@]1(O)CC[C@H]2[C@@H]3CCC4=CC(=O)C=C[C@]4(C)[C@@]3(F)[C@@H](O)C[C@@]21C", "Label class": "F"}
{"Molecule": "OCC(O)CS (stereo unspecified)", "Label class": "F"}

The origin of these recorded values is PubChem BioAssay (NCATS).
